Values were extracted from PubChem BioAssay AID1117319.

Target: Virion infectivity factor (Human immunodeficiency virus type 1 group M subtype B (isolate BH10)) + Virion infectivity factor (Human immunodeficiency virus type 1 group M subtype B (isolate BRU/LAI)) + Virion infectivity factor (Human immunodeficiency virus type 1 group M subtype B (isolate PCV12)) + Virion infectivity factor (Human immunodeficiency virus type 1 group M subtype B (isolate HXB2)) + DNA dC->dU-editing enzyme APOBEC-3G (Homo sapiens) (UniProt P69720+P69721+P69722+P69723+Q9HC16)
Assay: HIV-1 Vif–A3G interaction blockers – biochemical, TR-FRET, GST-Vif 1-94, biotin-A3G peptide, dose response retest, primary screen (AID 1117319);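 also: Vif residues 1-94 fused to GST binding biotinylated APOBEC3G peptide 110-148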
Conditions: TR-FRET GST-Vif / biotin-A3G peptide binding
Inconclusive results are not listed.
In this section we review reported IC50 values for a set of compounds.

Below: 3 compounds and their reported IC50.
query: I have this compound here, C=CCN(CC=C)C(=S)NC(=O)c1ccc([N+](=O)[O-])cc1 , and I need its recorded IC50.
result: 66.8 µM

query: I have this compound here, Cn1cnnc1SC/C(O)=C(\C#N)c1nc2ccccc2[nH]1 , and I need its recorded IC50.
result: 19.7 µM

query: I have this compound here, Cc1cccc(/C=C(\C(=O)O)c2ccc(S(=O)(=O)N3CCCC3)s2)c1 , and I need its recorded IC50.
result: 22 µM

***
query: I have this compound here, N#C/C(=C/c1ccc(Br)o1)C(N)=S , and I need its recorded IC50.
result: 3.87 µM

query: I have this compound here, NC(=O)COC(=O)c1ccc(Oc2ccccc2)cc1 , and I need its recorded IC50.
result: 98.9 µM

query: I have this compound here, O=C1S/C(=C\C=C\c2ccco2)C(=O)N1c1ccc(O)cc1 , and I need its recorded IC50.
result: 0.69 µM

query: I have this compound here, COc1ccc2c(c1)O[C@@H](c1ccc3c(c1)OCO3)[C@H](OC(=O)Nc1cc(OC)c(OC)c(OC)c1)C2=O , and I need its recorded IC50.
result: 66.6 µM

query: I have this compound here, O=C(O)CC(C(=O)O)N1C(=O)/C(=C/c2ccc(-c3nc4ccccc4s3)o2)SC1=S (stereo unspecified) , and I need its recorded IC50.
result: 6.36 µM

query: I have this compound here, Cc1cccc(N/N=C/c2ccc(O)c(O)c2O)c1 , and I need its recorded IC50.
result: 9.51 µM

query: I have this compound here, CCOC(=O)C1=C(Cc2ccc(Cl)cc2)C(=O)c2ccccc2C1=O , and I need its recorded IC50.
result: 34.7 µM

query: I have this compound here, O=C(O)CC(Cn1cnnn1)c1ccccc1 (stereo unspecified) , and I need its recorded IC50.
result: 58.8 µM

* * *

In this section we review reported IC50 values for a set of molecules.
Molecular target: Virion infectivity factor (Human immunodeficiency virus type 1 group M subtype B (isolate BH10)) + Virion infectivity factor (Human immunodeficiency virus type 1 group M subtype B (isolate BRU/LAI)) + Virion infectivity factor (Human immunodeficiency virus type 1 group M subtype B (isolate PCV12)) + Virion infectivity factor (Human immunodeficiency virus type 1 group M subtype B (isolate HXB2)) + DNA dC->dU-editing enzyme APOBEC-3G (Homo sapiens) (UniProt P69720+P69721+P69722+P69723+Q9HC16)
Assay: HIV-1 Vif–A3G interaction blockers – biochemical, TR-FRET, GST-Vif 1-94, biotin-A3G peptide, dose response retest, primary screen (AID 1117319);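 also: Vif residues 1-94 fused to GST binding biotinylated APOBEC3G peptide 110-148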
Conditions: TR-FRET GST-Vif / biotin-A3G peptide binding
Inconclusive results are not listed.

Below: 5 molecules and their reported IC50.
query: I have this molecule here, Cn1c(=O)c2c(ncn2CC(=O)N/N=C/C=C/c2ccco2)n(C)c1=O , and I need its recorded IC50.
result: 6.39 µM

query: I have this molecule here, Cc1ccsc1C=Nc1ccc(O)cc1 , and I need its recorded IC50.
result: 17.1 µM

query: I have this molecule here, O=C(CSc1nc(-c2ccco2)cc(C(F)(F)F)n1)N1CCc2ccccc2C1 , and I need its recorded IC50.
result: 22.8 µM

query: I have this molecule here, CCn1c(SCC(=O)NCc2ccco2)nnc1-c1cccs1 , and I need its recorded IC50.
result: 95.8 µM

query: I have this molecule here, COc1ccc(CCNC(=O)c2ccc3nc(-c4ccco4)c(-c4ccco4)nc3c2)cc1OC , and I need its recorded IC50.
result: 0.45 µM

***
query: I have this molecule here, CCN1CCN(C2=NC(=O)/C(=C/c3ccc(C)o3)S2)CC1 , and I need its recorded IC50.
result: 3.48 µM
